TESTED_SYSTEM: cyclin D1/cdk 4 enzyme (Homo sapiens)
Construct: made in house; host or cells: Sf9 insect cells, recombinant baculovirus
Sequence (P11802 whole entry, species assumed): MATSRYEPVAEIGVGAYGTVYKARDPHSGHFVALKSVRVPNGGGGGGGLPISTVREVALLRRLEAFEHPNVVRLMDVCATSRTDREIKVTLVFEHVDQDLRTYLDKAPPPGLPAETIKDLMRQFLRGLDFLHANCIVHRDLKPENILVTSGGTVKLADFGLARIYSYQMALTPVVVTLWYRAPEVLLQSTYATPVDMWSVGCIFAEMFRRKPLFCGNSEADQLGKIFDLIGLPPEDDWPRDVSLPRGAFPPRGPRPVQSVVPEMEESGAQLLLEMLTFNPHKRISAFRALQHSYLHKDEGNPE
Sequence (P24385 whole entry partner, species assumed): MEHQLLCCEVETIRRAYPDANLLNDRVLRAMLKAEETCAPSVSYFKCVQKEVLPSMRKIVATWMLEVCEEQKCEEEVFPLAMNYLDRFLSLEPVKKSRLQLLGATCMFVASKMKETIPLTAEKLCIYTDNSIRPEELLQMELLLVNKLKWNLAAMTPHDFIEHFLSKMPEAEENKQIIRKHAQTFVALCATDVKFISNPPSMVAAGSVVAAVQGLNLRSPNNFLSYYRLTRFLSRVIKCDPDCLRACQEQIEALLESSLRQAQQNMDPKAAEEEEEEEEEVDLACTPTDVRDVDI
ASSAY_EXPLANATION: CDK4 ELISA kinase assay (phospho-Rb ser 795 detection)
Type: biochemical
DETAILS: In Vitro Enzyme Assays, 200 μM ATP, read-out: CDK4 IC50
OUTCOME_MEASURE: log10(IC50) (log10 of the value in nM)
In our notation, the value equals log10 of IC50 in nM.

COC(=O)Oc1ccc(CN/C=C2\C(=O)NC(=O)c3ccc(Br)cc32)cc1OC(=O)OC [Example 76]
2.59
O=C1NCc2ccccc2/C1=C/Nc1ccc(-c2c[nH]cn2)cc1 [compound 3]
4.62
CCCOc1ccc(CN/C=C2\C(=O)N(O)C(=O)c3ccccc32)cc1O [Example 230]
4.44

[Q] Given O=C1NC(=O)c2ccc(Br)cc2/C1=C/NCc1ccc(O)c(O)c1 [Example 40] , state its recorded log10(IC50).
[A] 1.60

[Q] Need log10(IC50), item O=C1NC(=O)c2ccc(Br)cc2/C1=C/NCc1ccc(O)cc1 [Example 62]
[A] 4.49

[Q] What value of log10(IC50) has been recorded for this entry: COC(=O)Nc1ccc(CN/C=C2\C(=O)NC(=O)c3ccc(Br)cc32)cc1OC(=O)OC [Example 184]
[A] 3.78

---

TESTED_SYSTEM: cyclin D1/cdk 4 enzyme (Homo sapiens)
Construct: made in house; host or cells: Sf9 insect cells, recombinant baculovirus
ASSAY_EXPLANATION: CDK4 ELISA kinase assay (phospho-Rb ser 795 detection)
Type: biochemical
DETAILS: In Vitro Enzyme Assay, cyclin D1/cdk 4, read-out: CDK4 IC50
A collection of compounds and their measured pIC50
To interpret pIC50, take it as minus log10 of a concentration measured in moles per litre.

As a guide, the following entries are already answered.
O=C1NC(=O)c2ccc(Br)cc2/C1=C/Nc1ccc(CN2CCC(CCO)CC2)cc1
5.89
Cc1ncsc1C=Cc1ccc2c(c1)C(=CNCc1ccc(S(N)(=O)=O)cc1)C(=O)NC2=O
6.36
O=C(O)CCc1ccc(-c2ccc3c(c2)C(=CNCc2ccc(O)c(O)c2)C(=O)NC3=O)cc1
6.09

[Q] Quick check: pIC50 on cyclin D1/cdk 4 enzyme (Homo sapiens), item O=C1NC(=O)c2ccc(-c3ccccc3)cc2C1=CNCc1ccc(O)c(O)c1 ?
[A] 7.30

[Q] Please tell me: pIC50 of O=C1NC(=O)c2ccc(-c3nccs3)cc2/C1=C/Nc1ccc(CN2CCC[C@H]2CO)cc1 , system cyclin D1/cdk 4 enzyme (Homo sapiens)?
[A] 6.22

[Q] Request body: readout pIC50, system cyclin D1/cdk 4 enzyme (Homo sapiens), query O=C1NC(=O)c2ccc(C=CCn3ccnc3)cc2C1=CNCc1ccc(O)c(O)c1 . Return the value.
[A] 6.80

[Q] Notebook entry, cyclin D1/cdk 4 enzyme (Homo sapiens) assay: pIC50 of NS(=O)(=O)c1ccc(CNC=C2C(=O)NC(=O)c3ccc(-c4ccc(C(=O)O)cc4)cc32)cc1 = ?
[A] 5.64

[Q] pIC50 of O=C1NC(=O)c2ccc(C=Cc3ccc4ccccc4c3)cc2C1=CNCc1ccc(O)c(O)c1 on cyclin D1/cdk 4 enzyme (Homo sapiens)?
[A] 5.26

[Q] // lookup pIC50 | system=cyclin D1/cdk 4 enzyme (Homo sapiens) | key= CCN(CC)CCN1CCN(c2ccc(NC=C3C(=O)NC(=O)c4ccccc43)cc2)CC1
[A] 4.40

[Q] Provide the documented pIC50 with cyclin D1/cdk 4 enzyme (Homo sapiens) as the system for O=C1NC(=O)c2ccccc2C1=CNCCc1ccc(O)c(O)c1
[A] 4.79

[Q] # returns recorded pIC50 (system: cyclin D1/cdk 4 enzyme (Homo sapiens)) for N#CCc1ccc(NC=C2C(=O)NC(=O)c3ccc(-c4ccc5ccccc5c4)cc32)cc1
[A] 4.89

[Q] Under cyclin D1/cdk 4 enzyme (Homo sapiens): pIC50 value of CN1CCN(c2ccc(NC=C3C(=O)NC(=O)c4ccc(C=CC(O)CO)cc43)cc2)CC1 (stereo not drawn) ?
[A] 5.60

[Q] Lab request: please report pIC50 under test system cyclin D1/cdk 4 enzyme (Homo sapiens) for O=C1NC(=O)c2ccc(-c3ccco3)cc2/C1=C/NCc1ccc(-c2ccc(F)cc2)c(O)c1
[A] 7.52

[Q] Hi! What's the reported pIC50 for CC(=O)N(C)c1ccc(NC=C2C(=O)NC(=O)c3ccccc32)cc1 on cyclin D1/cdk 4 enzyme (Homo sapiens)?
[A] 4.44

[Q] What value of pIC50 on cyclin D1/cdk 4 enzyme (Homo sapiens) does N#CCc1ccc(NC=C2C(=O)NC(=O)c3ccc(-c4cccc5ccccc45)cc32)cc1 have?
[A] 4.60

[Q] Query for cyclin D1/cdk 4 enzyme (Homo sapiens): what pIC50 does the record show for N#CCc1ccc(NC=C2C(=O)NC(=O)c3ccc(-c4cc[nH]c4)cc32)cc1 ?
[A] 5.38

[Q] // lookup pIC50 | system=cyclin D1/cdk 4 enzyme (Homo sapiens) | key= O=C1NC(=O)c2ccc(N3Cc4ccccc4C3)cc2C1=CNCc1ccc(O)c(O)c1
[A] 6.42

[Q] I'm curious: which pIC50 was measured for N#Cc1ccc(-c2ccc3c(c2)C(=CNc2ccc(CN4CCCC4)cc2)C(=O)NC3=O)cc1 tested on cyclin D1/cdk 4 enzyme (Homo sapiens)?
[A] 5.48
